# System: HCC78 cells having ROS1 fusion gene
# measurement-notes: HCC78 cell growth assay (CellTiter-Glo)
# Format: cell-based
# condition-summary: Homo sapiens, HCC78, 72 h, 72 hours culture, 2% FBS medium, luminescence, four separate measurements; read-out: growth inhibitory effect on HCC78 cells having ROS1 fusion gene IC50
reported-endpoint: IC50

Here are 3 compounds together with their reported answers.
> print(dat)
                                   compound                     target.or.system  reported.endpoint  observed.value
1  CC(Oc1ccc2ncc(-c3ccc(N4C[C@@H](N)CC4=O)cc3)n2n1)c1cc(C#N)n(C)n1 (stereo partly shown) [Example 116]  HCC78 cells having ROS1 fusion gene               IC50   100 to 600 nM
2  CN[C@H]1CC(=O)N(c2ccc(-c3cnc4ccc(O[C@H](C)c5cncc(F)c5)nn34)cc2)C1 [Example 108]  HCC78 cells having ROS1 fusion gene               IC50    20 to 100 nM
3  CC(Oc1ccc2ncc(-c3ccc(N4C[C@@H](N)CC4=O)cc3)n2n1)c1cc(F)ccc1F (stereo partly shown) [Example 104]  HCC78 cells having ROS1 fusion gene               IC50    20 to 100 nM

Let's switch to this compound now.
**Q:** Read the entry C[C@@H](Nc1ccc2ncc(-c3ccc(OCC4CNC4)cc3)n2n1)c1cccc(F)c1 [Example 27] and write its reported IC50.
**A:** 100 to 600 nM

====

# target-or-system: ROS1 (Homo sapiens, UniProt P08922)
# Construct: purchased Carna Biosciences 08-163
# Sequence (P08922 28-2347): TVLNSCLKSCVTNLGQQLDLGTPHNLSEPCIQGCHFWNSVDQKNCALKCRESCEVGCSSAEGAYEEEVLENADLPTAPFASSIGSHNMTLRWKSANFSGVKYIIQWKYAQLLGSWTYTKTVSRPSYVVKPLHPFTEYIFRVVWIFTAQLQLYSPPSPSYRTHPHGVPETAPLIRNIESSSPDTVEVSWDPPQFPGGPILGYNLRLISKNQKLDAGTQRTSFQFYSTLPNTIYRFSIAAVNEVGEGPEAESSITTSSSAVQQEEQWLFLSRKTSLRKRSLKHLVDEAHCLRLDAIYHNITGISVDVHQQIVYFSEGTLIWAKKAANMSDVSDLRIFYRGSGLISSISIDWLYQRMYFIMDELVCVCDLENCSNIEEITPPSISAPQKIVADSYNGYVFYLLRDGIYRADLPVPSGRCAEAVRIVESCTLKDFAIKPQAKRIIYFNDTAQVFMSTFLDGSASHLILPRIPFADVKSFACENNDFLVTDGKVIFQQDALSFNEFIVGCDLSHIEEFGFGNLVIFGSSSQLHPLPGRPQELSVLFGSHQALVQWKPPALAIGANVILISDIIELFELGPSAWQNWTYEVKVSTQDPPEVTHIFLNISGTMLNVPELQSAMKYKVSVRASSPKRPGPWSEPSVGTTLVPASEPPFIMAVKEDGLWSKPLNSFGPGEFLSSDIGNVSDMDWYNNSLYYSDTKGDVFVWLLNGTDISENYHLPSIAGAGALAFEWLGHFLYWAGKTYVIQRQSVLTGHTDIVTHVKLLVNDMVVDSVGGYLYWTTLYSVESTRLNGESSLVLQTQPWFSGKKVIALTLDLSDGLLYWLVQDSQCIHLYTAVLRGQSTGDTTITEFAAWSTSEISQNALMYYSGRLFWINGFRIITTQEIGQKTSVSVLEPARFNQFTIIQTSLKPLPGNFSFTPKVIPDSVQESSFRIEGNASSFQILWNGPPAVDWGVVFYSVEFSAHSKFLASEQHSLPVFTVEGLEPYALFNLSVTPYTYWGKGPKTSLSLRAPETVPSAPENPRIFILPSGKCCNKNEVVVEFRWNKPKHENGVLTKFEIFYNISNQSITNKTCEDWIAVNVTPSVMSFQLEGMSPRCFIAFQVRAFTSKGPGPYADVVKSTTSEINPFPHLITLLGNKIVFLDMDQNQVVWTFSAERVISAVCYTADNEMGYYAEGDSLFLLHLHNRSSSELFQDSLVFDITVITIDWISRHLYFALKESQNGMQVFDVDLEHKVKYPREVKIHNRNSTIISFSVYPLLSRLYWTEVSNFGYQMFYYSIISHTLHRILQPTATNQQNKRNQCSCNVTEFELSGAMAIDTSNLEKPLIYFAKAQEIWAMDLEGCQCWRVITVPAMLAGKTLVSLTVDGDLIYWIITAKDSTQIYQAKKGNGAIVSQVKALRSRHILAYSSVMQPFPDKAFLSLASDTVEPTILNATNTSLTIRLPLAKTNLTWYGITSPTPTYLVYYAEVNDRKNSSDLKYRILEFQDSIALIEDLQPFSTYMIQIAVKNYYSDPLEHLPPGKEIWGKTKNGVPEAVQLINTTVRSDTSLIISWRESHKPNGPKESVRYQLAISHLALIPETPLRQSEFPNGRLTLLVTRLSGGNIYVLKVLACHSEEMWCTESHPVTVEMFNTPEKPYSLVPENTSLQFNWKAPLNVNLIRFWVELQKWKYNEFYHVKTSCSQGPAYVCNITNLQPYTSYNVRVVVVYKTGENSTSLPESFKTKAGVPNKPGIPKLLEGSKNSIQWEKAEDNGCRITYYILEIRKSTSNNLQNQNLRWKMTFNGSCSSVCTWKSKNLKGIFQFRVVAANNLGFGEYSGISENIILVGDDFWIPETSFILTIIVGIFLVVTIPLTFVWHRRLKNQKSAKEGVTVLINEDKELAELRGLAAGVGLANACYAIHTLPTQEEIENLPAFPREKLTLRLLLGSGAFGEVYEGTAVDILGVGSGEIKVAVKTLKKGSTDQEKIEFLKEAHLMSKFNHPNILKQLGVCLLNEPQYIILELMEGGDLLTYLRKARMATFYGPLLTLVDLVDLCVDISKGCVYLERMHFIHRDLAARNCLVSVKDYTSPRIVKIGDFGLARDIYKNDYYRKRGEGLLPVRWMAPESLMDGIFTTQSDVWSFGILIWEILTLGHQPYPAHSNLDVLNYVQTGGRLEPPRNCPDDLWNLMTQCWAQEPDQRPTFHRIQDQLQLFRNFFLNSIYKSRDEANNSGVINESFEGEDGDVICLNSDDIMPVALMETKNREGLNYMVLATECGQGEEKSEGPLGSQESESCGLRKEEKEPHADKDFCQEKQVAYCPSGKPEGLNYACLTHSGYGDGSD
# measurement-notes: ROS1 kinase inhibitory activity evaluation (mobility shift, EZ Reader II)
# Format: biochemical
# condition-summary: ROS1 25 pg/μL, FL-Peptide 22 substrate, three separate measurements
pIC50: −log10 of the molar value.
Overview of reported pIC50 across a group of molecules:

> print(dat)
                                   molecule  observed.value
1  C[C@@H](Nc1ccc2ncc(-c3ccc(N4C[C@@H](N)CC4=O)cc3)n2n1)c1cccc(F)c1 [Example 90]          > 9.00

**Q:** Answer with the recorded pIC50 for the molecule listed here: C[C@@H](Nc1ccc2ncc(-c3ccc(OCCN)cc3)n2n1)c1cccc(F)c1 [Example 26]
**A:** > 9.00

**Q:** // fetch pIC50 given entry C[C@@H](Nc1ccc2ncc(-c3ccc(OCCCN)cc3)n2n1)c1cccc(F)c1 [Example 28]
**A:** > 9.00

**Q:** Fill in reported pIC50 for this entry: C[C@@H](Nc1ccc2ncc(-c3ccc(OC4CCCC4N)cc3)n2n1)c1cccc(F)c1 (single isomer, unassigned) [Example 32]
**A:** > 9.00

**Q:** Read off the recorded pIC50 for CN(Cc1cccc(F)c1)c1ccc2ncc(-c3ccc(N4C[C@@H](N)CC4=O)nc3)n2n1 [Example 128]
**A:** > 9.00

**Q:** Output measured pIC50 for this item: c1ccc(CNc2ccc3ncc(-c4cccc(OC[C@@H]5CCCN5)c4)n3n2)cc1 [Example 2]
**A:** 8.00 to 9.00

**Q:** // Input: C[C@@H](Nc1ccc2ncc(-c3ccc(OCC(N)CO)cc3)n2n1)c1cccc(F)c1 (some centres unmarked) [Example 45] . Output its pIC50 only.
**A:** > 9.00

**Q:** Please report pIC50 for the following molecule: C[C@@H](Nc1ccc2ncc(-c3ccc(O[C@H]4C[C@@H](N)C4)cc3)n2n1)c1cccc(F)c1 [Example 61]
**A:** 8.00 to 9.00

====

Listed below: pIC50 values for each entry.
# target-or-system: ROS1 (Homo sapiens)
# Construct: purchased Carna Biosciences 08-163
# measurement-notes: ROS1 autophosphorylation inhibitory activity evaluation (ADP-Glo)
# Assay type: biochemical
# condition-summary: 200 nM inactive ROS1, ATP 1 mM, 25° C. 1.5 hours, ADP generated, four separate measurements
# Method: Fifty mM HEPES (pH 7.5), 10 mM MgCl2, 0.01% Brij-58, and 2.5 mM DTT were mixed to prepare an enzymatic reaction solution. […] ATP (final concentration: 1 mM) was further added thereto at a concentration of 2.5 μL/well. […] The amount of ADP generated by the autophosphorylation of ROS1 was measured using EnVision (PerkinElmer Japan). […] IC50 values were calculated by curve fitting using GraphPad Prism version 4 (GraphPad software).
pIC50: −log10 of the molar value.

> print(dat)
                                   compound  observed.value
1  C[C@@H](Oc1ccc2ncc(-c3ccc(OCC4CCNCC4)cc3)n2n1)c1cccc(F)c1    7.00 to 7.70
2  c1ccc(CNc2ccc3ncc(-c4cccc(O[C@@H]5CCNC5)c4)n3n2)cc1    6.82 to 7.00
3  C[C@@H](Nc1ccc2ncc(-c3ccc(OC[C@@H]4CCNC4)cc3)n2n1)c1cccc(F)c1          > 7.70
4  C[C@@H](Nc1ccc2ncc(-c3ccc(N4C[C@@H](N)CC4=O)c(F)c3)n2n1)c1cccc(F)c1          > 7.70
5  CC(Oc1ccc2ncc(-c3ccc(N4C[C@@H](N)CC4=O)cc3)n2n1)c1cc(F)ccc1F (some centres unmarked)          > 7.70

**Q:** Given the compound CN(Cc1cccc(F)c1)c1ccc2ncc(-c3ccc(N4CC(C)(N)CC4=O)cc3)n2n1 (centres unmarked) [Example 84] , write its reported pIC50.
**A:** 7.00 to 7.70

**Q:** Return pIC50 (reported value) for this compound: `c1ccc(CNc2ccc3ncc(-c4ccc(O[C@@H]5CCNC5)cc4)n3n2)cc1`
**A:** 7.00 to 7.70

**Q:** Note down pIC50 recorded for `C[C@@H](Nc1ccc2ncc(-c3ccc(OC[C@H](N)CO)cc3)n2n1)c1cccc(F)c1`
**A:** > 7.70

====

# target-or-system: ROS1 (Homo sapiens, UniProt P08922)
# Construct: purchased Carna Biosciences 08-163
# measurement-notes: ROS1 kinase inhibitory activity evaluation (mobility shift, EZ Reader II)
# Type: biochemical
# condition-summary: ROS1 25 pg/μL, FL-Peptide 22 substrate, three separate measurements
reported-endpoint: IC50

Here are 2 compounds together with their reported answers.
> print(dat)
                                   compound  reported.endpoint  observed.value
1  CCN(Cc1cccc(F)c1)c1ccc2ncc(-c3ccc(N4C[C@@H](N)CC4=O)cc3)n2n1 [Example 100]               IC50      1 to 10 nM
2  Cc1cc(N2C[C@@H](N)CC2=O)ccc1-c1cnc2ccc(N[C@H](C)c3ccccc3)nn12 [Example 89]               IC50     10 to 60 nM

**Q:** Give the value of IC50 reported for the following: OCCN1CCC[C@H]1COc1cccc(-c2cnc3ccc(NCc4ccccc4)nn23)c1 [Example 7]
**A:** 1 to 10 nM

**Q:** In one line, give reported IC50 of the entry C[C@@H](Nc1ccc2ncc(-c3ccc(OC[C@@H]4CCN4)cc3)n2n1)c1cccc(F)c1 [Example 30] .
**A:** < 1 nM

====

# target-or-system: NTRK3 (Homo sapiens)
# Sequence (Q16288 32-839): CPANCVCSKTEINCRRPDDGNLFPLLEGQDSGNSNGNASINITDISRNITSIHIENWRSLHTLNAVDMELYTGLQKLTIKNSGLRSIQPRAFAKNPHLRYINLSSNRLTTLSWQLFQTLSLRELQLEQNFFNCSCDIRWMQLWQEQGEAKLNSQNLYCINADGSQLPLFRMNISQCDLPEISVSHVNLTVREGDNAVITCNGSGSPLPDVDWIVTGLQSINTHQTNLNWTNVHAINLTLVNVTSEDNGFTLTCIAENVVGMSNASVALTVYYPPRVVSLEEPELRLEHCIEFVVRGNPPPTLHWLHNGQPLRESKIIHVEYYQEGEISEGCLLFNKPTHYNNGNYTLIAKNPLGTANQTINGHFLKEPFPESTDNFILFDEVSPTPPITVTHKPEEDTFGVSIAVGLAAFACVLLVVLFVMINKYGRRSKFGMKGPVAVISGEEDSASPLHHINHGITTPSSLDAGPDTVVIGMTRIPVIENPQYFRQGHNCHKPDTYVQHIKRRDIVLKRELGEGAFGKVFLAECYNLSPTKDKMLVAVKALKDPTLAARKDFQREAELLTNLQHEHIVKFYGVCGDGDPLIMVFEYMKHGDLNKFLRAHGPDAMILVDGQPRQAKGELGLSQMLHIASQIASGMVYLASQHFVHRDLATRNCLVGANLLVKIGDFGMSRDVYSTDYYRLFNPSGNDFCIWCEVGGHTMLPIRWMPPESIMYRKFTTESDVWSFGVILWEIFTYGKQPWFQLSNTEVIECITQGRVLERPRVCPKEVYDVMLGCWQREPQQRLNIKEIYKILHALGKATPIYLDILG
pIC50: −log10 of the molar value.
Measured pIC50 by item

> print(dat)
                                   molecule  reported.endpoint  observed.value
1  C[C@@H](Nc1ccc2ncc(-c3ccc(N4C[C@@H](N)CC4=O)cc3)n2n1)c1cccc(F)c1 [Example 90]              pIC50          > 8.30
2  C[C@@H](Nc1ccc2ncc(-c3ccc(OC[C@@H]4CCCN4)cc3)n2n1)c1cccc(F)c1 [Example 24]              pIC50          > 8.30

Next:
**Q:** Find the measured pIC50 of C[C@H](N)COc1ccc(-c2cnc3ccc(N[C@H](C)c4cccc(F)c4)nn23)cc1 [Example 41] with NTRK3 (Homo sapiens) as test system.
**A:** > 8.30

====

# target-or-system: ROS1 (Homo sapiens)
# Construct: purchased Carna Biosciences 08-163
# measurement-notes: ROS1 kinase inhibitory activity evaluation (mobility shift, EZ Reader II)
# Assay type: biochemical
# condition-summary: ROS1 25 pg/μL, FL-Peptide 22 substrate, three separate measurements
pIC50: −log10 of the molar value.
Recorded pIC50 by entry

> print(dat)
                                   compound  observed.value
1  CN(Cc1cccc(F)c1)c1ccc2ncc(-c3ccc(N4CC(N)CC4=O)cc3)n2n1 (stereo not shown)          > 9.00

**Q:** Indicate the recorded pIC50 value for this compound: `CN(Cc1cncc(F)c1Cl)c1ccc2ncc(-c3ccc(N4C[C@@H](N)CC4=O)cc3)n2n1`
**A:** 8.00 to 9.00

**Q:** Return pIC50 (reported value) for this compound: `c1ccc(CNc2ccc3ncc(-c4ccc(OC[C@@H]5CCNC5)cc4)n3n2)cc1`
**A:** 8.00 to 9.00

**Q:** Find the measured pIC50 of `Fc1cccc(COc2ccc3ncc(-c4ccc(OC[C@@H]5CCCN5)cc4)n3n2)c1` and report it.
**A:** 8.00 to 9.00

The reported numbers originate from patent US9751887B2.
